- System: Micrococcus luteus BKM Ac-2230
- MEASUREMENT DESCRIPTION: Antibacterial activity (MIC/MBC), serial dilutions in liquid MH medium
- Format: cell-based
- RECORDED CONDITIONS: 20 h, MH medium
MEASURED QUANTITY: log10(MIC) (log10 of the value in µM)

C=CC1=C(C)c2cc3[n-]c(cc4nc(cc5[n-]c(cc1n2)c(C)c5CCC(=O)NCC(=O)OC)C(CCC(=O)NCC(=O)OC)=C4C)c(C)c3C=C.[Cl-].[Fe+3] [Compound XV] = 0.20
C=CC1=C(C)c2cc3[n-]c(cc4nc(cc5[n-]c(cc1n2)c(C)c5CCC(=O)NCCc1c[nH]cn1)C(CCC(=O)NCCc1c[nH]cn1)=C4C)c(C)c3C=C.[Cl-].[Fe+3] [Compound XIX, 6,7-bis-Histaminyl-Protohemin IX] = 1.40
C=CC1=C(C)c2cc3[n-]c(cc4nc(cc5[n-]c(cc1n2)c(C)c5CCC(=O)NCCO)C(CCC(=O)NCCO)=C4C)c(C)c3C=C.[Cl-].[Fe+3] [Compound XIV] = -0.10
C=CC1=C(C)c2cc3[n-]c(cc4[n-]c(cc5nc(cc1n2)C(C)=C5C=C)c(C)c4CCC(=O)O)c(CCC(=O)O)c3C.[Cl-].[Fe+3] [Hem, hemin] = 1.10
C=CC1=C(C)c2cc3[n-]c(cc4nc(cc5[n-]c(cc1n2)c(C)c5CCC(=O)N[C@@H](CCC(=O)N[C@@H](CCCNC(=N)N)C(=O)OC)C(=O)N[C@@H](CCCNC(=N)N)C(=O)OC)C(CCC(=O)N[C@@H](CCC(=O)N[C@@H](CCCNC(=N)N)C(=O)OC)C(=O)N[C@@H](CCCNC(=N)N)C(=O)OC)=C4C)c(C)c3C=C.[Cl-].[Fe+3] [Compound XVIII] = 0.49
